Taken from paper PMC8847695.

- tgt: IDO1 (1-435) (Homo sapiens)
- Construct: His-tag of pET15b with TEV site (thrombin site replaced) (cleaved yes); made in house; host or cells: E. coli Rosetta 2 (DE3) pLysS
- Sequence (P14902 whole entry): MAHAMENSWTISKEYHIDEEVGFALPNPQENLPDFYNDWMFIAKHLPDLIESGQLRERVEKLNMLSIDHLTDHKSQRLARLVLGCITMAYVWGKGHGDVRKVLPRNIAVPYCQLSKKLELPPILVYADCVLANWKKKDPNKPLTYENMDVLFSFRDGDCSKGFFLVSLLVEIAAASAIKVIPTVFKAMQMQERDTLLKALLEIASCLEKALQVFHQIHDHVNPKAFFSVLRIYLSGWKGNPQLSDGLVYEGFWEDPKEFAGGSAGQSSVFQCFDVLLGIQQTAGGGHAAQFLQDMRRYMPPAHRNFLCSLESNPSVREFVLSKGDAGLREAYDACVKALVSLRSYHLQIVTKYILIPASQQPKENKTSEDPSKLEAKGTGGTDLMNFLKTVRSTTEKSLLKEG
- protocolDetails: STD-NMR fragment screening, IDO1
- Type: binding
- cond: 1 = hit, 0 = no hit

molecule	IDO1 (STD-NMR hit flag)
O=C(c1cc(Br)c[nH]1)N1CCOCC1 [Fragment B02290115]	0
[O-][n+]1ccc(Cl)cc1 [Fragment B02297421]	0
O=C(O)c1nn(Cn2cccn2)cc1Cl [Fragment B02291154]	0
Cc1onc(N)c1I [Fragment B02290521]	1
Nc1ccc(Cl)c(C(=O)O)c1 [Fragment B02291260]	0
Cc1nc(N)nc(Cl)c1Cl [Fragment B02291102]	1
CC(=O)c1c[nH]c2ncnc(Cl)c12 [Fragment B02290661]	1
Clc1nsnc1N1CCOCC1 [Fragment B02297414]	0
O=C(O)c1cncc(Cl)c1 [Fragment B02289604]	0
CCOC(Cn1cc(Cl)cn1)OCC [Fragment B02291225]	1
Nc1ncccc1I [Fragment B02289600]	0
O=C(O)c1cncc(Cl)n1 [Fragment B02289611]	0
O=C(O)c1ncccc1Br [Fragment B02289614]	0
O=[N+]([O-])c1cnc(Br)[nH]1 [Fragment B02289601]	1
Clc1cscn1 [Fragment B02290477]	0
Cn1c(Cl)c(C#N)c(=O)n(C)c1=O [Fragment B02291234]	1
O=C(O)c1ccc(Br)cn1 [Fragment B02291245]	0
O=C(O)c1c(I)ccnc1F [Fragment B02290658]	0
O=C(O)C(=O)Nc1ccc(Cl)cn1 [Fragment B02290408]	0
Clc1ccc(CN2CCNCC2)cn1 [Fragment B02290121]	0
Cc1nn(CC(=O)O)c(C)c1Cl [Fragment B02291243]	1
CC(C)c1nsc(Cl)n1 [Fragment B02291237]	0
O=C1Nc2c(Cl)cccc2C1=O [Fragment B02290467]	0
